The entries below come with measured Density index of Nilaparvata lugens values attached.
System: Brown Planthopper (Nilaparvata lugens)
Assay: Residual effect test (field experiment) for brown planthopper
Assay type: in vivo
Settings: After 51 days; 25 mg wettable powder at roots per strain, artificial paddy field
Give a plain numeric answer without units written out.

Worked set:
# Molecule, Measured number
data = [
    ("Cc1cccc(-c2c([O-])[n+](CCC#N)c3ccccn3c2=O)c1 [Compound 3]", 88.5),
    ("N#CCC[n+]1c([O-])c(-c2cccc(OC(F)(F)F)c2)c(=O)n2ccccc21 [Compound 57]", 80.7),
    ("O=c1c(-c2cccc(C(F)(F)F)c2)c([O-])[n+](Cc2cncnc2)c2ccccn12 [Triflumezopyrim, reference compound]", 92.2),
    ("N#CCC[n+]1c([O-])c(-c2cccc(C(F)(F)F)c2)c(=O)n2ccccc21 [Compound 51]", 76.2),
]

Now consider a different molecule.
-- ask Please report Density index of Nilaparvata lugens with Brown Planthopper (Nilaparvata lugens) for item N#Cc1nn(-c2c(Cl)cc(C(F)(F)F)cc2Cl)c(N)c1[S+]([O-])C(F)(F)F (centres unmarked) [Fipronil, reference compound] .
-- reply 98.4

* * *

Test system: Rice Stem Borer (Chilo suppressalis)
Assay: Test (pot test) for controlling rice stem borer
Type: in vivo
Details: browning stem ratio relative to untreated, 500 g/ha, 14 days after treatment
Metric: Ratio to untreated (%)
Write the value in % as a bare number.

# Compound, Target entity, Measured number
rows = [
    ("O=c1c(-c2cccc(C(F)(F)F)c2)c([O-])[n+](Cc2cncnc2)c2ccccn12 [Triflumezopyrim, reference compound]", "Rice Stem Borer (Chilo suppressalis)", 49),
    ("Cc1cccc(-c2c([O-])[n+](CCC#N)c3ccccn3c2=O)c1", "Rice Stem Borer (Chilo suppressalis)", 0),
]

-- ask Supply reported Ratio to untreated (%) belonging to this compound: "N#CCC[n+]1c([O-])c(-c2cccc(C(F)(F)F)c2)c(=O)n2ccccc21"
-- reply 12

-- ask Supply reported Ratio to untreated (%) belonging to this compound: "N#CCC[n+]1c([O-])c(-c2cccc(OC(F)(F)F)c2)c(=O)n2ccccc21"
-- reply 0

* * *

System: Brown Planthopper (Nilaparvata lugens)
Assay: Residual effect test (field experiment) for brown planthopper
Type: in vivo
Conditions: After 37 days; 25 mg wettable powder at roots per strain, artificial paddy field
Experimental: The roots of five sampled rice seedlings were washed with water. Subsequently, 25 mg of the wettable powder prepared in accordance with Formulation Example 2 described above was wrapped in the roots. Each strain was made from the five seedlings. […] On 16 to 51 days after the treatment, the numbers of surviving insects and dead insects were measured to calculate the density index. […]
// classify: if (Density index of Nilaparvata lugens < 50) met else not met

Worked examples, 3 molecules total:
# Molecule, Target entity, Assigned category
records = [
    ("N#Cc1nn(-c2c(Cl)cc(C(F)(F)F)cc2Cl)c(N)c1[S+]([O-])C(F)(F)F (centres unmarked) [Fipronil, reference compound]", "Brown Planthopper (Nilaparvata lugens)", "not met"),
    ("O=c1c(-c2cccc(C(F)(F)F)c2)c([O-])[n+](Cc2cncnc2)c2ccccn12 [Triflumezopyrim, reference compound]", "Brown Planthopper (Nilaparvata lugens)", "not met"),
    ("N#CCC[n+]1c([O-])c(-c2cccc(C(F)(F)F)c2)c(=O)n2ccccc21", "Brown Planthopper (Nilaparvata lugens)", "met"),
]

For the next question, use this molecule.
-- ask Find out if reported Density index of Nilaparvata lugens for "Cc1cccc(-c2c([O-])[n+](CCC#N)c3ccccn3c2=O)c1" is less than 50
-- reply met

* * *

Tested on: Cotton Aphid (Aphis gossypii)
Assay: Test (foliar spraying) for controlling cotton aphid
Format: in vivo
Settings: 120 h, 12.5 ppm, foliar spraying, 5 days after treatment
Metric: mortality at 12.5 ppm (%)
Write the value in % as a bare number.

# Compound, Metric, Unit info, Measured number
records = [
    ("N#CC[n+]1c([O-])c(-c2cccc(C(F)(F)F)c2)c(=O)n2ccccc21", "mortality at 12.5 ppm", "%", 10),
    ("CC(C#N)C[n+]1c([O-])c(-c2cccc(C(F)(F)F)c2)c(=O)n2ccccc21 (centres unmarked)", "mortality at 12.5 ppm", "%", 50),
    ("N#CCCC[n+]1c([O-])c(-c2cccc(C(F)(F)F)c2)c(=O)n2ccccc21", "mortality at 12.5 ppm", "%", 75),
    ("Cc1cccc(-c2c([O-])[n+](CCCCC#N)c3ccccn3c2=O)c1", "mortality at 12.5 ppm", "%", 0),
]

-- ask Supply reported mortality at 12.5 ppm belonging to this compound: "Cc1cccn2c(=O)c(-c3cc(Cl)cc(Cl)c3)c([O-])[n+](Cc3cnc(Cl)s3)c12"
-- reply 0

* * *

The entries below come with measured mortality at 0.02 ppm values attached.
Tested on: Brown Planthopper (Nilaparvata lugens)
Experiment: Test (foliar dipping) for controlling brown planthopper
Assay type: in vivo
Settings: 120 h, 0.02 ppm, rice seedlings dipped, 5 days after treatment
Write the value in % as a bare number.

Worked set:
# Molecule, Unit info, mortality at 0.02 ppm
measured = [
    ("N#CCC[n+]1c(O)c(-c2cccc(C(F)F)c2)c(=O)n2ccccc21", "%", 20),
    ("Cc1cccc(-c2c([O-])[n+](CCC#N)c3ccccn3c2=O)c1", "%", 40),
    ("COc1cccc(-c2c([O-])[n+](CCC#N)c3ccccn3c2=O)c1", "%", 20),
]

Now consider a different molecule.
-- ask Supply reported mortality at 0.02 ppm belonging to this molecule: "CCOc1cccc(-c2c([O-])[n+](CCC#N)c3ccccn3c2=O)c1"
-- reply 70
